Experiment: Pharmacokinetic Assay, single oral dose 5 mg/kg (Table 12)
Type: in vivo
Conditions: mouse; plasma concentration, C57 female mice, single oral dose 5 mg/kg, 0.5 h
Class field: derived from concentration at 0.5 h; ranges lower level = under 40 ng/mL, middle level = from 40 ng/mL up to 200 ng/mL, upper level = 200 ng/mL and over

Below, 5 compounds whose answers are already recorded.
Cc1c(-c2nc3cc(CN4CC=CC4)c(OC(F)F)cc3o2)cccc1-c1cccc(-c2nc3cc(CN4CCC[C@H]4C(=O)O)c(OC(F)F)cc3o2)c1C: lower level
Cc1c(-c2ccc3c(c2)CCNC3)cccc1-c1cccc(-c2nc3cc(CN4CCC[C@H]4C(=O)O)c(OC(F)F)cc3o2)c1C: lower level
Cc1c(-c2nc3cc(CN4CCC[C@H]4C(=O)O)c(OC(F)F)cc3o2)cccc1-c1cccc(-c2nc3cc(CN4CC[C@@H](C#N)C4)cc(C#N)c3o2)c1C: upper level
COc1nc(-c2cccc(-c3cccc(-c4nc5cc(CN6CCC[C@H]6C(=O)O)c(OC(F)F)cc5o4)c3C)c2C)ccc1CN1CC[C@H](C)C1: middle level
C#CC1(O)CN(Cc2cc(C#N)c3oc(-c4cccc(-c5cccc(-c6nc7cc(CN8CCC[C@H]8C(=O)O)c(OC(F)F)cc7o6)c5C)c4C)nc3c2)C1: upper level

Next compound, please.
Q: The entry to classify is Cc1c(-c2nc3cc(CN4CCC[C@H]4C(=O)O)c(OC(F)F)cc3o2)cccc1-c1cccc(-c2nc3cc(CN4CCC(F)C4)cc(C#N)c3o2)c1C (stereo partly drawn) ; which class holds it?
Result: upper level
